# MEASURED TARGET: HIV-1 protease (Human immunodeficiency virus type 1 group M subtype B, UniProt P04585)
# ASSAY NAME: Inhibition constants against HIV-1 protease (method of Pennington et al.)
# Type: biochemical
# CONDITION: HIV-1 protease; read-out: Ki value
Task for the reader: assign each of the following molecules its reported pKi.
One number for each entry, as −log10 of the molar value.

- MOLECULE: "CC(C)CN(C[C@@H](O)[C@H](Cc1ccccc1)NC(=O)OCc1cccnc1)S(=O)(=O)c1ccc(F)cc1"
  pKi: 9.30
- MOLECULE: "COc1ccc(S(=O)(=O)N(CC2CCCC2)C[C@@H](O)[C@H](Cc2ccccc2)NC(=O)OCc2ccccc2OC)cc1"
  pKi: 9.40
- MOLECULE: "CC(=O)Nc1ccc(S(=O)(=O)N(CC(C)C)C[C@@H](O)[C@H](Cc2ccccc2)NC(=O)OCCc2ccccc2)cc1"
  pKi: 6.89
- MOLECULE: "CC(C)CN(C[C@@H](O)[C@H](Cc1ccccc1)NC(=O)O[C@H]1CCOC1)S(=O)(=O)c1ccoc1"
  pKi: 8.52
- MOLECULE: "CC(C)CN(C[C@@H](O)[C@H](Cc1ccccc1)NC(=O)[C@@H](NC(=O)OCc1cccnc1)C(C)C)S(=O)(=O)c1cccc2nonc12"
  pKi: 5.52

Quick one: give me pKi for each item below, same order please.
1. CC(C)CN(CC(O)C(Cc1ccccc1)NC(=O)OCC1CCOC1)S(=O)(=O)c1ccc(Cl)c(Cl)c1 (centres unmarked)
2. COC(=O)N[C@@H](Cc1ccccc1)[C@H](O)CN(CC(C)C)S(=O)(=O)c1ccc(F)cc1
3. CC(C)CN(C[C@@H](O)[C@H](Cc1ccccc1)NC(=O)O[C@H]1CCOC1)S(=O)(=O)c1ccc(F)c(F)c1

Given back:
[8.40, 8.26, 8.96]

* * *

# MEASURED TARGET: HIV-1 protease (Human immunodeficiency virus type 1 group M subtype B)
# ASSAY NAME: Inhibition constants against HIV-1 protease (method of Pennington et al.)
# Type: biochemical
# CONDITION: HIV-1 protease; read-out: Ki value
Task for the reader: assign each of the following compounds its reported Ki.

Quick one: give me Ki for each item below, same order please.
1. COc1ccc(S(=O)(=O)N(CC2CCCC2)C[C@@H](O)[C@H](Cc2ccccc2)NC(=O)O[C@H]2CCOC2)cc1
2. COc1ccc(S(=O)(=O)N(CC2CCCC2)C[C@@H](O)[C@H](Cc2ccccc2)NC(=O)OCc2cccnc2)cc1
3. COc1ccc(COC(=O)N[C@@H](Cc2ccccc2)[C@H](O)CN(CC2CCCC2)S(=O)(=O)c2ccc(OC)cc2)cc1

Given back:
< 0.1 nM
< 0.1 nM
< 0.1 nM
